- Tested on: a variety of test species
- MEASUREMENT DESCRIPTION: Post-emergence herbicidal activity
- Format: in vivo
- Parameters: key: 0 = no damage to plant, 5 = total damage to plant
- RUN CONDITIONS: rate 1000 g/ha, evaluated after 13 days
OBSERVABLE: ABUTH (Abutilon theophrasti) damage score
Number only, no unit.

Inquiry: Indicate its recorded ABUTH (Abutilon theophrasti) damage score; the compound in question is COC1=C(C)C(=O)N(c2cc(C(F)(F)F)c(I)cn2)C1O (centres unmarked)
Reply text: 5

Inquiry: Tell us which ABUTH (Abutilon theophrasti) damage score value is on record for COC1=C(C)C(=O)N(c2cc(C(C)(C)C)cnn2)C1O (centres unmarked)
Reply text: 5

Inquiry: For the compound COC1=C(Cl)C(O)N(c2cc(C(F)(F)F)ccn2)C1=O (centres unmarked) , give its reported ABUTH (Abutilon theophrasti) damage score.
Reply text: 5

Next:
Inquiry: Return reported ABUTH (Abutilon theophrasti) damage score. Input compound: COC1=C(C)C(=O)N(c2cc(Cl)c(Br)cn2)C1O (centres unmarked)
Reply text: 0

Inquiry: State its ABUTH (Abutilon theophrasti) damage score for this compound: COC1=C(C)C(=O)N(c2cc(C(C)(C)C#N)ncn2)C1O (racemic)
Reply text: 5

Inquiry: Using known records, supply ABUTH (Abutilon theophrasti) damage score for COC1=C(C)C(=O)N(c2cc(C(F)(F)F)c(C#N)cn2)C1O (centres unmarked)
Reply text: 5

Inquiry: Supply measured ABUTH (Abutilon theophrasti) damage score of COC1=C(C)C(=O)N(c2cc(C)c(S(=O)(=O)N3CCCCC3)cn2)C1O (centres unmarked) in your reply.
Reply text: 0

Inquiry: State, in one line, measured ABUTH (Abutilon theophrasti) damage score of COC1=C(C)C(=O)N(c2cc(C)c(-c3ccc(C#N)cc3)cn2)C1O (centres unmarked)
Reply text: 5

Inquiry: Give ABUTH (Abutilon theophrasti) damage score for the following compound: COC1=C(C)C(=O)N(c2cc(C)c(-c3ccsc3)cn2)C1O (centres unmarked)
Reply text: 5

Inquiry: Tell me ABUTH (Abutilon theophrasti) damage score reported for C=CCCOc1cnc(N2C(=O)C(C)=C(OC)C2O)cc1C(F)(F)F (centres unmarked)
Reply text: 5

Inquiry: Give me measured ABUTH (Abutilon theophrasti) damage score, please, for this compound: COC1=C(C)C(=O)N(c2cc(C(F)(F)F)c(OCc3cccc(OC)c3)cn2)C1O (centres unmarked)
Reply text: 3
